The values you see were collected from paper PMC8268887.

Form field: MIC, AB (one value per entry).
System: A. baumannii ATCC 19606
Assay type: cell-based, Acinetobacter baumannii
Details: ATCC 19606, 20 h
Method: MIC values of the peptidomimetics were evaluated by using the modified Hancock lab protocol in non-binding polystyrene microtiter plates. Bacterial suspensions of ~5 × 10^5 CFU/mL in Mueller-Hinton broth (Difco, Sparks, MD, USA) were prepared with Mg^2+ and Ca^2+ concentrations of 4 mg/L each. […] Following incubation for 20 h of the covered plates at 35 °C (±2 °C) with circular shaking at 180 rpm, the MICs were read.
Give your result in µg/mL as a bare value.

1) NCCCC[C@H](NC(=O)CCN(Cc1ccc(F)cc1)C(=O)[C@H](CCCCN)NC(=O)CCN(Cc1ccc(F)cc1)C(=O)[C@H](CCCCN)NC(=O)CCOCCOCCOCCOCCOCCOCCNC(=O)CCN(Cc1ccc(F)cc1)C(=O)[C@H](CCCCN)NC(=O)CCN(Cc1ccc(F)cc1)C(=O)[C@H](CCCCN)NC(=O)CCN(Cc1ccc(F)cc1)C(=O)[C@@H](N)CCCCN)C(=O)N(CCC(N)=O)Cc1ccc(F)cc1 [Compound 10, H-[X]3-sPEG6-[X]3-NH2]; 4

The compound listed as NCCCC[C@H](NC(=O)CCN(Cc1ccc(F)cc1)C(=O)[C@H](CCCCN)NC(=O)CCN(Cc1ccc(F)cc1)C(=O)[C@H](CCCCN)NC(=O)CCN(Cc1ccc(F)cc1)C(=O)[C@H](CCCCN)NC(=O)CCN(Cc1ccc(F)cc1)C(=O)[C@H](CCCCN)NC(=O)CCN(Cc1ccc(F)cc1)C(=O)[C@H](CCCCN)NC(=O)COCCOCCN)C(=O)N(CCC(N)=O)Cc1ccc(F)cc1 [Compound 2, H-sPEG2-[X]6-NH2] shows MIC, AB equal to 4
